This collection of values is drawn from patent US7732437B2.

- ASSAYED_TARGET: human histamine H1-receptor (Homo sapiens, UniProt P35367)
- Construct: expressed in transfected cells; host or cells: CHO cells
- Sequence (P35367 whole entry): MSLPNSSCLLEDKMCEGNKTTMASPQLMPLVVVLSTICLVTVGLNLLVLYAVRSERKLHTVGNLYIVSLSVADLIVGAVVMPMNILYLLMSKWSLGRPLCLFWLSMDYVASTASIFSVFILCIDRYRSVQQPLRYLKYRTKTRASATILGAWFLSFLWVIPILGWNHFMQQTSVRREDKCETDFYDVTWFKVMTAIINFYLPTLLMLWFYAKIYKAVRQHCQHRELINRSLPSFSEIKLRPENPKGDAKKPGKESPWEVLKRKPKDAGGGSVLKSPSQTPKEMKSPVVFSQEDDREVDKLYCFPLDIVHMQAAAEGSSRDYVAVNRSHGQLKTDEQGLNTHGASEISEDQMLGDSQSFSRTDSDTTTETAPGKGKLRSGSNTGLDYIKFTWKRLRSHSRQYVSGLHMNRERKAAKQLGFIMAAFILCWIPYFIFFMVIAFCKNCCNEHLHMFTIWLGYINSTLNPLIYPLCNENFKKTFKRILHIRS
- ASSAY: Radioligand binding, histamine H1-receptor, competitive inhibition of [3H]Pyrilamine
- EXPERIMENTAL_PARAMETERS: CHO-cells transfected with the human histamine H1-receptor, read-out: H1-antagonist activity (pIC50) (converted)

{"MOLECULE": "Cc1nc2n(C)c3ccccc3n2c(=O)c1CCN1CCC(C2c3ccccc3CCn3c2nc2ccccc23)CC1Cc1ccccc1 (single isomer, unassigned) [Compound 1]", "IC50 (µM)": 0.2}
{"MOLECULE": "Cc1nc2ccccn2c(=O)c1CCN1CCC(C2c3ccccc3CCn3c2nc2ccccc23)CC1Cc1ccccc1 (stereo not drawn)", "IC50 (µM)": 0.2}
{"MOLECULE": "Cc1nc2n(C)c3ccccc3n2c(=O)c1CCN1CCC(C2c3ccccc3CCn3c2nc2ccccc23)CC1Cc1ccccc1 (stereo not drawn) [Compound 30]", "IC50 (µM)": 0.794}
{"MOLECULE": "Cc1nc2ccccn2c(=O)c1CCN1CCC(C2c3ccccc3CCn3c2nc2ccccc23)C(C)C1 (single isomer, unassigned) [Compound 94]", "IC50 (µM)": 0.1}
{"MOLECULE": "Cc1cncc(Cn2c3ccccc3n3c(=O)c(CCN4CCC(C5c6ccccc6CCn6c5nc5ccccc56)CC4Cc4ccccc4)c(C)nc23)n1 (stereo not drawn)", "IC50 (µM)": 0.631}
{"MOLECULE": "Cc1nc2sccn2c(=O)c1CCN1CCC(C2c3ccccc3CCn3c2nc2ccccc23)C(C)C1 (stereo not drawn)", "IC50 (µM)": 0.251}

###

Below, each entry is listed with its recorded Effect on blood pressure.
- Tested on: Sprague-Dawley rats with closed head injury
- ASSAY: Closed Head Injury (CHI) model, severe head injury
- EXPERIMENTAL_PARAMETERS: 0.5 mg/kg/min for 10 min; severe head injury; first 15 minutes; 6 rats

{"COMPOUND": "CN1CCC(=C2c3ccccc3CC(=O)c3sccc32)CC1 [Ketotifen, reference compound]", "Effect on blood pressure": 0}
{"COMPOUND": "CN1CCN(C(c2ccccc2)c2ccc(Cl)cc2)CC1 (stereo not shown) [Chlorcyclizine, reference compound]", "Effect on blood pressure": 0}

###

- ASSAYED_TARGET: human histamine H1-receptor (Homo sapiens, UniProt P35367)
- Construct: expressed in transfected cells; host or cells: CHO cells
- ASSAY: Radioligand binding, histamine H1-receptor, competitive inhibition of [3H]Pyrilamine
- EXPERIMENTAL_PARAMETERS: CHO-cells transfected with the human histamine H1-receptor, read-out: H1-antagonist activity (pIC50) (converted)
Response field class: string, computed from recorded IC50 by ranges low bracket = under 300 nM, middle bracket = from 300 nM up to 400 nM, high bracket = 400 nM and over

{"MOLECULE": "Cc1nc2sccn2c(=O)c1CCN1CCC(C)(C2c3ccccc3CCn3c2nc2ccccc23)CC1 (stereo not shown) [Compound 104]", "LABEL_CLASS": "low bracket"}
{"MOLECULE": "Cc1nc2n(C)c3ccccc3n2c(=O)c1CCN1CCC(C2c3ccccc3CCn3c2nc2ccccc23)CC1Cc1ccccc1 (single isomer, unassigned) [Compound 17]", "LABEL_CLASS": "high bracket"}
{"MOLECULE": "Cc1nc2ccccn2c(=O)c1CCN1CCC(C2c3ccccc3CCn3c2nc2ccccc23)C(C)C1 (single isomer, unassigned) [Compound 89]", "LABEL_CLASS": "high bracket"}
{"MOLECULE": "COCCOCCn1c2ccccc2n2c(=O)c(CCN3CCC(C4c5ccccc5CCn5c4nc4ccccc45)CC3Cc3ccccc3)c(C)nc12 (stereo not shown) [Compound 35]", "LABEL_CLASS": "high bracket"}
{"MOLECULE": "CCOCCn1c2ccccc2n2c(=O)c(CCN3CCC(C4c5ccccc5CCn5c4nc4ccccc45)CC3Cc3ccccc3)c(C)nc12 (stereo not shown) [Compound 23]", "LABEL_CLASS": "low bracket"}
{"MOLECULE": "Cc1nc2n(C)c3ccccc3n2c(=O)c1CCN1CCC(C2c3ccccc3CCn3c2nc2ccccc23)CC1 (stereo not shown) [Compound 14]", "LABEL_CLASS": "low bracket"}
{"MOLECULE": "Cc1nc2sccn2c(=O)c1CCN1CCC(C2(C)c3ccccc3CCn3c2nc2ccccc23)CC1 (stereo not shown) [Compound 110]", "LABEL_CLASS": "low bracket"}
{"MOLECULE": "Cc1nc2n(C)c3ccccc3n2c(=O)c1CCN1CCC(C2c3ccccc3CCn3c2nc2ccccc23)CC1Cc1ccccc1 (single isomer, unassigned) [Compound 46]", "LABEL_CLASS": "low bracket"}
{"MOLECULE": "Cc1nc2n(C)c3ccccc3n2c(=O)c1CCN1CCC(C2c3ccccc3CCn3c2nc2ccccc23)CC1Cc1ccccc1 (stereo not shown) [Compound 50]", "LABEL_CLASS": "low bracket"}
{"MOLECULE": "Cc1nc2n(C)c3ccccc3n2c(=O)c1CCN1CCC(C2c3ccccc3CCn3c2nc2ccccc23)CC1Cc1ccccc1 (stereo not shown) [Compound 48]", "LABEL_CLASS": "middle bracket"}
{"MOLECULE": "Cc1nc2n(CCOCCO)c3ccccc3n2c(=O)c1CCN1CCC(C2c3ccccc3CCn3c2nc2ccccc23)CC1Cc1ccccc1 (stereo not shown) [Compound 37]", "LABEL_CLASS": "high bracket"}
{"MOLECULE": "CCOC(=O)Cn1c2ccccc2n2c(=O)c(CCN3CCC(C4c5ccccc5CCn5c4nc4ccccc45)CC3Cc3ccccc3)c(C)nc12 (stereo not shown) [Compound 53]", "LABEL_CLASS": "middle bracket"}
{"MOLECULE": "Cc1nc2n(C)c3ccccc3n2c(=O)c1CCN1CCC(C2c3ccccc3CCn3c2nc2ccccc23)CC1Cc1ccccc1 (single isomer, unassigned) [Compound 2]", "LABEL_CLASS": "high bracket"}
{"MOLECULE": "CCOC(=O)Cn1c2ccccc2n2c(=O)c(CCN3CCC(C4c5ccccc5CCn5c4nc4ccccc45)CC3Cc3ccccc3)c(C)nc12 (stereo not shown) [Compound 54]", "LABEL_CLASS": "middle bracket"}
{"MOLECULE": "CCn1c2ccccc2n2c(=O)c(CCN3CCC(C4c5ccccc5CCn5c4nc4ccccc45)CC3Cc3ccccc3)c(C)nc12 (stereo not shown) [Compound 12]", "LABEL_CLASS": "middle bracket"}
{"MOLECULE": "COCCOCn1c2ccccc2n2c(=O)c(CCN3CCC(C4c5ccccc5CCn5c4nc4ccccc45)CC3Cc3ccccc3)c(C)nc12 (stereo not shown) [Compound 29]", "LABEL_CLASS": "high bracket"}
{"MOLECULE": "Cc1nc2n(C)c3ccccc3n2c(=O)c1CCN1CCC(C2c3ccccc3CCn3c2nc2ccccc23)CC1Cc1ccccc1 (racemic) [Compound 15]", "LABEL_CLASS": "middle bracket"}
{"MOLECULE": "Cc1nc2n(C)c3ccccc3n2c(=O)c1CCN1CCC(C2c3ccccc3CCn3c2nc2ccccc23)CC1Cc1ccccc1 (stereo not shown) [Compound 49]", "LABEL_CLASS": "middle bracket"}
{"MOLECULE": "Cc1nc2n(C)c3ccccc3n2c(=O)c1CCN1CCC(C2c3ccccc3CCn3c2nc2ccccc23)CC1Cc1ccccc1 (stereo not shown) [Compound 55]", "LABEL_CLASS": "low bracket"}
{"MOLECULE": "Cc1nc2n(C)c3ccccc3n2c(=O)c1CCN1CCC(C2c3ccccc3CCn3c2nc2ccccc23)CC1Cc1ccccc1 (stereo not shown) [Compound 13]", "LABEL_CLASS": "middle bracket"}
